Test system: mGrn mRNA
Experiment Summary: mGrn mRNA qPCR in Neuro2a cells transfected with ASOs
Format: cell-based, mouse
Run Parameters: Table 16; Neuro2A, 40 nM, transfection
Oligonucleotides are written 5' to 3', each unit as a sugar letter and its base; * is a phosphorothioate linkage, no mark a phosphodiester; rarer units and linkages stand in square brackets, end groups in braces. Plain capitals give the bases only. e = 2'-O-(2-methoxyethyl) (MOE); [5mC] = 5-methylcytosine
Endpoint Name: 40 nM FC (mGrn mRNA) (FC)
Write down the numeric answer in FC and omit the unit.

GET /value?item= CO-5304: CO-3595 modified to include varying PO/PS internucleotide bonds (antisense e[5mC]*e[5mC]*eT*eG*eAeAe[5mC]eTeGeTeAeTeGeGe[5mC]eTeG*eA*e[5mC]*e[5mC]) &field=40 nM FC (mGrn mRNA) returns 1.4

GET /value?item= CO-5306: CO-3595 modified to include varying PO/PS internucleotide bonds (antisense e[5mC]*e[5mC]*eT*eG*eA*eA*e[5mC]*eT*eGeTeAeTeGeGe[5mC]eTeG*eA*e[5mC]*e[5mC]) &field=40 nM FC (mGrn mRNA) returns 1.2

GET /value?item= CO-5309: CO-3595 modified to include varying PO/PS internucleotide bonds (antisense e[5mC]*e[5mC]*eTeGeAeAe[5mC]eTeGeTeAeTeGeGe[5mC]eT*eG*eA*e[5mC]*e[5mC]) &field=40 nM FC (mGrn mRNA) returns 1.3

GET /value?item= CO-3595: ASO targeting the Grn promoter (− strand) (antisense e[5mC]*e[5mC]*eT*eG*eA*eA*e[5mC]*eT*eG*eT*eA*eT*eG*eG*e[5mC]*eT*eG*eA*e[5mC]*e[5mC]) &field=40 nM FC (mGrn mRNA) returns 1.2

Data provenance is patent US20250243488A1.
